Origin of values: patent US8598216B1

# testMethodNotes: in vivo
# assaySetup: dog, po, 100 mg, peak concentration (Cmax), range
testReadout: Cmax

Endpoint output: Cmax of CC(C)c1nc(CN(C)C(=O)N[C@H](C(=O)N[C@@H](Cc2ccccc2)C[C@H](O)[C@H](Cc2ccccc2)NC(=O)OCc2cncs2)C(C)C)cs1.Cl.Cl [ritonavir bis-hydrochloride] . Value?
1160 to 8390 ng/mL

* * *

# testMethodNotes: in vivo
# assaySetup: dog, po, 100 mg, AUC, range
# Procedure: A series of studies evaluated the effect of the bis-hydrochloride and bis-tosylate form on the ritonavir plasma concentrations following single 100 mg base doses in dogs. Each of the salts was evaluated in a single group of six dogs. […] Plasma concentrations of parent drug were determined by HPLC-MS/MS. The following formulations/salts were evaluated: amorphous ritonavir bis-hydrochloride, amorphous ritonavir free base, and ritonavir bis-tosylate.
testReadout: AUC

molecule: CC(C)c1nc(CN(C)C(=O)N[C@H](C(=O)N[C@@H](Cc2ccccc2)C[C@H](O)[C@H](Cc2ccccc2)NC(=O)OCc2cncs2)C(C)C)cs1.Cl.Cl [ritonavir bis-hydrochloride]
AUC: 3160 to 20200 ng·h/mL

Pending molecule:
Endpoint output: AUC of CC(C)c1nc(CN(C)C(=O)N[C@H](C(=O)N[C@@H](Cc2ccccc2)C[C@H](O)[C@H](Cc2ccccc2)NC(=O)OCc2cncs2)C(C)C)cs1 [ritonavir free base, reference compound] . Value?
< 22 ng·h/mL
